# test.target: Hdm2 (Homo sapiens)
# Sequence (Q00987 whole entry): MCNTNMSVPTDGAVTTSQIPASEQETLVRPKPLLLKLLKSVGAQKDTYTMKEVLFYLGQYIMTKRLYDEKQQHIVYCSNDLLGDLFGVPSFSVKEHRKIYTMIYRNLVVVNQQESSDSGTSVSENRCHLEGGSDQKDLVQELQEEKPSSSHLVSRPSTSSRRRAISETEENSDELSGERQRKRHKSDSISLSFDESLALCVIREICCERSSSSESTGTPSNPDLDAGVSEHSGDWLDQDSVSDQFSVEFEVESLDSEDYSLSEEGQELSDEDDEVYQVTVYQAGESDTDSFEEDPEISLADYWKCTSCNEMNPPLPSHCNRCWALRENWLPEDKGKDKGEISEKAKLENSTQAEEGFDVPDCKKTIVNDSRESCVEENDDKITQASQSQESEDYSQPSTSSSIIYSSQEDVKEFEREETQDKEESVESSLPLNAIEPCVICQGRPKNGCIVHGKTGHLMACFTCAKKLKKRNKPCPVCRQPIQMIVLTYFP
pIC50: −log10 of the molar value.
quantity: pIC50

1. NCCc1c2c(c3nccc4c3c1Nc1ccccc1-4)OCS2 [Compound 5, Lissoclinidine B] = 4.01
